SYSTEM TESTED: T1, recombinant C-terminal ApoE fragment A199-HIS (ApoE-A199-H299-10xHIS) (human, UniProt P02649 217-317)
T1 construct: also called A199-HIS fragment
T1 sequence (P02649 other isoform, or with tags, fused parts or gaps limits assumed): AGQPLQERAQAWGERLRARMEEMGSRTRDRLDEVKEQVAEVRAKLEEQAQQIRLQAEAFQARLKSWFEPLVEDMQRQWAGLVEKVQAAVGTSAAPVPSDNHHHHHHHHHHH
ASSAY REMARKS: direct ELISA, A199-HIS coated at 0.1 µM
PROPERTY MEASURED: EC50
Answer format: number, then unit.

Can you look up the measured EC50 of 63F6, monoclonal anti-A199 antibody (antibody, IgG2b, V domains shown) VH: QVQLQQPGTELVKPGASVKLSCKASGYTFTNYWMHWVKQRPGQGLEWIGNINPRNGGTNYNEKFKSKATLTVDKSSSTDYMQLSSLTSEDSAVYYCARGLYDYDFDYWGQGTTLTVSS VL: DVLMTQTPLSLPVSLGDQASISCRSSQSIVHGNGNTYLQWFLQKPGQSPKLLIYKVSSRFSGVPDRFSGSGSGTDFTLKISRVEAEDLGVYYCFQGSHVPFTFGSGTKLEIK for me? 0.0018 µg/mL

Give the measured EC50 of 36A12, monoclonal anti-A199 antibody (antibody, IgG1, V domains shown) VH: EVKLEESGGGLVQPGGSMKLSCVASGFTFSNYWMNWVRQSPEKGLEWIGEIKLKSNNYGTHYAESVKGRFTISRDDSKSSVYLQMNNLRAEDTGIYYCTRDTEVVAGAHWGQGTLVTVSA VL: NIMMTQSPSSLAVSAGEKVTMSCKSSQSVLYNSNQKNYLAWYQQKPGQSPKLLIYWASTRDSGVPDRFTGSGSGTDFTLTISSVRAEDLAVYFCQQYLSSLTFGAGTKLELK . 0.0202 µg/mL

Others:
So what does the record say about EC50 for 67G3, monoclonal anti-A199 antibody (antibody, IgG2b, V domains shown) VH: QVQLQQPGTELVKPGASVKLSCKASGYTFTRYWLHWVKQRPGQGLEWIGNINPTNGGANYNEKFKNKATLTVDKSSSTAYMQLSSLTSEDSAVYYCSRGAYDYDCDYWGQGTTLTVSS VL: DVLMTQTPLSLPVSLGDQASISCRSSQRIVHSNGNIYLQWYLQKPGQSPKLLIYKVSNRFSGVPDRFSGSGSGTDFTLKISRVEAEDLGVYYCFQGSHVPYTFGGGTKLEIK ? 0.0035 µg/mL

// lookup EC50 for 38G9, monoclonal anti-A199 antibody (antibody, IgG1, V domains shown) VH: EVKLEESGGGLVQPGGSMKLSCVASGFTFSNYWMNWVRQSPEKGLEWVGEIKLKSNNYGTHYAESVKGRFTISRDDSKSSVYLQMNNLRAEDTGIYYCTRDTEVVAGAHWGQGTLVTVSA VL: NIMMTQSPSSLAVSAGEKVTMSCKSSQSVLYSSNQKNYLAWYQQKPGQSPKLLIYWASTRESGVPDRFTGSGSGTDFTLTISSVQAEDLAVYFCQQYLSSLTFGAGTKLELK 0.0397 µg/mL
